Data provenance is patent US6710080B2.

Each entry below carries its recorded inhibition at 10 mg/kg.
Tested on: phenylquinone-induced writhing in mice
Test: Writhing test in mice
Format: in vivo
Conditions: Mus musculus; male NMRI mice; 10 mg/kg intravenously 10 minutes before phenylquinone i.p.; writhing counted 5-20 minutes after phenylquinone; read-out: % Inhibition of the writhing reaction with 10 mg/kg intravenously
Counter-ions that a name gives are not always drawn.
In your response, put the unit directly after the numeric value.

Below, 5 compounds whose answers are already recorded.
{"compound": "CN(C)Cc1ccccc1-c1ccc2c(c1)OCO2 [Example 31, hydrochloride]", "inhibition at 10 mg/kg": "94%"}
{"compound": "COc1cccc(-c2ccccc2CCN(C)C)c1.Cl [Example 10, hydrochloride]", "inhibition at 10 mg/kg": "100%"}
{"compound": "CN(C)Cc1ccccc1-c1cccc(F)c1F.Cl [Example 29, hydrochloride]", "inhibition at 10 mg/kg": "83%"}
{"compound": "CN(C)Cc1ccccc1-c1cccc(C=O)c1.Cl [Example 14, hydrochloride]", "inhibition at 10 mg/kg": "100%"}
{"compound": "CN(C)Cc1ccccc1-c1ccc(F)c(Cl)c1.Cl [Example 9, hydrochloride]", "inhibition at 10 mg/kg": "89%"}

Looking for the measured inhibition at 10 mg/kg of CN(C)Cc1ccccc1-c1cc(F)ccc1F [Example 30, hydrochloride] , can you help?
89%

Now this one: CN(C)Cc1ccccc1-c1ccccc1.Cl [Example 15, hydrochloride]
52%

Queued: CN(C)Cc1ccccc1-c1ccc(Cl)cc1Cl [Example 28, hydrochloride]
90%

Quick one: CN(C)Cc1ccccc1-c1ccc2[nH]ccc2c1 [Example 26, [2-(1H-Indol-5-yl)benzyl]dimethylamine]
100%

Same again, this time with CN(C)Cc1ccccc1-c1cc(Cl)c(N)c(Cl)c1 [Example 43, hydrochloride]
99%

Lookup CN(C)CCc1ccccc1-c1cccc(O)c1.Cl [Example 24, hydrochloride]
99%

Okay, and Cc1cc2c(-c3ccccc3CN(C)C)cccc2o1 [Example 11, hydrochloride] ?
74%
